test system: shunt pathway activated by cobra venom factor; assay: Test Code 036 (C-Shunt inhibitor); assay type: cell-based, human; conditions: serial dilution assay, twofold dilutions; higher well number indicates higher activity; N = Negative
observation type: C-Shunt Inhibition 036 Wells

O=S(=O)(O)OC[C@H]1O[C@@H](OC[C@H]2O[C@H](O[C@H]3O[C@H](CO[C@@H]4O[C@H](COS(=O)(=O)O)[C@H](OS(=O)(=O)O)[C@H](OS(=O)(=O)O)[C@H]4OS(=O)(=O)O)[C@@H](OS(=O)(=O)O)[C@H](OS(=O)(=O)O)[C@H]3OS(=O)(=O)O)[C@H](OS(=O)(=O)O)[C@@H](OS(=O)(=O)O)[C@@H]2OS(=O)(=O)O)[C@H](OS(=O)(=O)O)[C@@H](OS(=O)(=O)O)[C@H]1OS(=O)(=O)O [drawing 11] | 5 Wells
O=S(=O)(O)O[C@@H]1[C@@H](OS(=O)(=O)O)[C@@H](O[C@H]2O[C@H](CO[C@@H]3OC[C@@H](OS(=O)(=O)O)[C@H](OS(=O)(=O)O)[C@H]3OS(=O)(=O)O)[C@@H](OS(=O)(=O)O)[C@H](OS(=O)(=O)O)[C@H]2OS(=O)(=O)O)O[C@H](CO[C@@H]2OC[C@@H](OS(=O)(=O)O)[C@H](OS(=O)(=O)O)[C@H]2OS(=O)(=O)O)[C@H]1OS(=O)(=O)O [drawing 13] | 3 Wells
O=S(=O)(O)OC[C@H]1O[C@@H](OC[C@H]2O[C@H](O[C@H]3O[C@H](CO[C@@H]4O[C@H](COS(=O)(=O)O)[C@H](OS(=O)(=O)O)[C@H](OS(=O)(=O)O)[C@H]4OS(=O)(=O)O)[C@@H](OS(=O)(=O)O)[C@H](OS(=O)(=O)O)[C@H]3OS(=O)(=O)O)[C@H](OS(=O)(=O)O)[C@@H](OS(=O)(=O)O)[C@@H]2OS(=O)(=O)O)[C@H](OS(=O)(=O)O)[C@@H](OS(=O)(=O)O)[C@H]1OS(=O)(=O)O [drawing 12] | 6 Wells

Consider the additional molecule presented here.
C-Shunt Inhibition 036 Wells for O=S(=O)(O)O[C@@H]1[C@@H](OS(=O)(=O)O)[C@@H](O[C@H]2O[C@H](CO[C@@H]3OC[C@@H](OS(=O)(=O)O)[C@H](OS(=O)(=O)O)[C@H]3OS(=O)(=O)O)[C@@H](OS(=O)(=O)O)[C@H](OS(=O)(=O)O)[C@H]2OS(=O)(=O)O)O[C@H](CO[C@@H]2OC[C@@H](OS(=O)(=O)O)[C@H](OS(=O)(=O)O)[C@H]2OS(=O)(=O)O)[C@H]1OS(=O)(=O)O [drawing 14] is 4 Wells

Where these numbers come from: patent US4359458A
